Every entry's value here was drawn from ChEMBL document CHEMBL1139610.

# PROTOCOL_DESCRIPTION: In vitro percent inhibition of ConA induced T-cell proliferation at the dose 1 ug/mL
# Type: functional
Decide using inhibition at 1 µg/mL: a value greater than or equal to 30% is yes, a smaller one is no.

SMILES_INPUT	CLASSIFICATION
COc1ccc2c(O)c(C(=O)N(C)c3ccccc3)cnc2c1	yes
CN(C(=O)c1cnc2cc(C(F)(F)F)ccc2c1O)c1ccccc1	yes
COc1ccc2c(O)c(C(=O)NCCN(C)C)cnc2c1	no
CN(C)CCNC(=O)c1cnc2ccc(Br)cc2c1O	no
Cc1ccc2ncc(C(=O)N(C)c3ccccc3)c(O)c2c1	no
CN(C(=O)c1cnc2cc(F)ccc2c1O)c1ccccc1	no
COc1ccc2c(O)c(C(=O)NCC(C)(C)CN(C)C)cnc2c1	yes
CCCN(CCC)C(=O)c1cnc2cc(Cl)ccc2c1O	yes
